Molecular target: TNFα trimer (Homo sapiens, UniProt P01375)
Sequence (P01375 77-233 limits assumed): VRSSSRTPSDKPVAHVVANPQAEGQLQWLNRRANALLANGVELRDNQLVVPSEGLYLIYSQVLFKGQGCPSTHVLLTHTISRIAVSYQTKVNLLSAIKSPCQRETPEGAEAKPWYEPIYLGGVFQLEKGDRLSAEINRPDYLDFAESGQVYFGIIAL
Test: TNFα FP Competitive Binding Assay
Details: FP binding assay; 20 nM TNFα trimer, 1 nM OregonGreen488 probe; read-out: TNF IC50
pIC50: −log10 of the molar value.
Would you mind telling me the reported pIC50 of each entry?

Observe how each entry below is paired with its result.
>>> print(df.to_string())
                                   compound  assay_endpoint  observed_result
0  COCCCNc1ncc(-c2ccc3c(=O)n(C)n(Cc4ccccc4OC(F)F)c3c2)cn1 [Example 2.22]           pIC50     5.00 to 6.00
1  CC(c1ccccc1F)n1c2cc(-c3cnc(N4CCN(C(=O)CO)[C@H](C)C4)nc3)ccc2c(=O)n1C (stereo partly shown) [Example 28.3]           pIC50           > 6.00
2  [2H]C([2H])([2H])n1c(=O)c2ccc(-c3cnc(N4CCN5C(=O)OC[C@H]5C4)nc3)cc2n1Cc1cc(C)ccc1OC(F)F [Example 57]           pIC50           > 6.00

Consider Cn1c(=O)c2ccc(-c3cnc(N4CCN5C(=O)NC[C@@H]5C4)nc3)cc2n1Cc1cc(Cn2cncn2)ccc1OC(F)F [Example 113] . Its measured pIC50 is > 6.00

====

Biological target: TNFα trimer (Homo sapiens)
Test: TNFα FP Competitive Binding Assay
Settings: FP binding assay; 20 nM TNFα trimer, 1 nM OregonGreen488 probe; read-out: TNF IC50
Procedure: TNFα FP Competitive Binding Assay • 1. […] • 1. […] Prior to reading the assay, the plates are placed in a dark cabinet to equilibrate at rt for one hour. • 9. Background-subtracted fluorescence polarization (mP) is measured using a PerkinElmer Envision plate reader. • 10. […]
Would you mind telling me the reported IC50 of each entry?

Observe how each entry below is paired with its result.
>>> df
                                   compound  assay_endpoint   observed_result
0  Cn1c(=O)c2ccc(-c3cnc(N4CCOCC4)nc3)cc2n1Cc1ccccc1            IC50  1000 to 10000 nM
1  CC(c1ccccc1Cl)n1c2cc(-c3cnc(N4CCN(C(=O)CO)[C@H](C)C4)nc3)ccc2c(=O)n1C (some centres unmarked)            IC50  1000 to 10000 nM
2  Cn1c(=O)c2ccc(-c3cnc(N4CCC(C(=O)O)CC4)nc3)cc2n1Cc1ccccc1OC(F)F            IC50  1000 to 10000 nM
3  Cn1c(=O)c2ccc(-c3cnc(CC4(C)COC4)nc3)cc2n1Cc1ccccc1OC(F)F            IC50  1000 to 10000 nM
4  Cc1ccc(OC(F)F)c(Cn2c3cc(-c4cnc(N5CCOCC5)nc4)ccc3c(=O)n2C)c1            IC50         < 1000 nM
5  Cc1cnc(C(F)(F)F)c(Cn2c3cc(-c4cnc(N5CCN6C(=O)NC[C@H]6C5)nc4)ccc3c(=O)n2C)c1            IC50  1000 to 10000 nM

Please state, for each entry, its recorded IC50.
1. Cc1ccc(CO)cc1Cn1c2cc(-c3cnc(N4CCOCC4)nc3)ccc2c(=O)n1C
2. C[C@@H]1CN(c2ncc(-c3ccc4c(=O)n(C)n(Cc5ccccc5OC(F)F)c4c3)cn2)CCN1C(=O)C(O)CN (some centres unmarked)

["1000 to 10000 nM", "< 1000 nM"]

Please state, for each entry, its recorded IC50.
1. Cc1ccc(OC(F)F)c(Cn2c3cc(-c4cnc(C(C)(C)O)nc4)ccc3c(=O)n2C(F)F)c1
2. C[C@@H]1CN(C(=O)CO)CCN1c1ncc(-c2cc3c(cc2F)c(=O)n(C)n3Cc2ccccc2OC(F)F)cn1
3. Cc1ccc(OC(F)F)c(Cn2c3nc(-c4cnc(N5CCN(C(=O)CO)C[C@H]5C)nc4)ccc3c(=O)n2C)c1
4. Cn1c(=O)c2ccc(-c3cnc(NC4CCCOC4)nc3)cc2n1Cc1ccccc1OC(F)F (centres unmarked)
5. Cn1c(=O)c2ccc(-c3cnn(C4CCOCC4)c3)cc2n1Cc1cccc(F)c1
6. Cn1c(=O)c2ccc(-c3cnc(N4CCN5C(=O)OC[C@H]5C4)nc3)cc2n1Cc1cc(CO)ccc1OC(F)F
7. Cn1c(=O)c2ccc(-c3cnc(C(C)(C)O)nc3)cc2n1Cc1cc(N2CCOCC2)ccc1OC(F)F

["1000 to 10000 nM", "< 1000 nM", "< 1000 nM", "1000 to 10000 nM", "> 10000 nM", "< 1000 nM", "1000 to 10000 nM"]
